Hi there, I'd appreciate the recorded cytotoxicity at 70.5 h for every entry that follows.
assay: Human HepG2 cell viability assay in 384 well format; type: toxicity, cell-based; design: dose 125 nL, time 70.5 hour; concentration not given beside the values; conditions: HepG2 cells, read-out: Inhibition
Numbers only, in %.

Example compounds with recorded cytotoxicity at 70.5 h:
CSc1ccc(C2CC(=O)Nc3c2c(=O)[nH]c2ncnn32)cc1 (stereo not drawn) | 6.12
Cn1cnnc1SCC(=O)NC1CC(=O)N(CCc2cccc(Cl)c2)C1 (stereo not drawn) | -7.55
Cc1nn(C)c2c(=O)n(CC(=O)NCc3ccccc3Cl)ccc12 | 8.11
Cc1ncsc1CN1CC[C@H]2OCC[C@@]2(C(=O)N2CCCO2)C1 | -2.27
O=C(NCCCN1CCc2ccccc2C1)c1cccnc1O | -11.9
CN(C)C(=O)CN1CCCC2(CCN(c3ccsc3)C2=O)C1 (stereo not drawn) | 23.7

Give measured cytotoxicity at 70.5 h for every item shown.
1. OC(c1cccs1)C1CCN(c2ncccn2)CC1 (stereo not drawn)
2. O=C1N(CC2CC2)C2(CCSCC2)NC12CCCC2
3. O=C(NCCCN1CCN(c2ncccn2)CC1)Nc1ccccn1
4. CN(Cc1cccnc1)Cc1cncc2c1CCN(c1ccccn1)C2
5. Cc1cc(C)nc(CN(C)C(=O)c2ccccc2C2CCNC2)c1 (stereo not drawn)
6. CCOc1ccc(NC(=O)N2CCOC(C(N)=O)C2)cc1Cl (stereo not drawn)
7. CCc1nc2n(n1)CC(NCc1noc(-c3ccccc3)n1)CC2 (stereo not drawn)

Result:
1. -8.6
2. 30.4
3. -2.48
4. 2.24
5. -5.21
6. 2.49
7. 12.2

----------
test: Human HepG2 cell viability assay in 384 well format; format: toxicity, cell-based; set-up: dose 125 nL, time 70.5 hour; concentration not given beside the values; details: HepG2 cells, read-out: Inhibition
Hi there, I'd appreciate the recorded cytotoxicity at 70.5 h for every entry that follows.
Answers are plain numbers, in %.

CCO[C@@H]1CC[C@H]2[C@H]1OCCN2C(=O)c1nn(C)c2ccccc12 | 2.67
Cc1nc(C2CCN(S(=O)(=O)c3ccc4c(c3)CCC4)CC2)n[nH]1 | -2.6
Cc1ccc2nc(C3CCCN3Cc3scnc3C)[nH]c2c1 (centres undefined) | -6.86

Next:
Request: Requested field: cytotoxicity at 70.5 h. Item: CN(C)CCNCC1COCc2c(-c3ccnn3C)nnn2C1 (centres undefined)
Result: 16.1

----------
experiment: Human HepG2 cell viability assay in 384 well format; type: toxicity, cell-based; set-up: dose 125 nL, time 70.5 hour; concentration not given beside the values; conditions: HepG2 cells, read-out: Inhibition
assay-metric: cytotoxicity at 70.5 h (%)
Give bare numbers, in %.

Example compounds with recorded cytotoxicity at 70.5 h:
Cc1cc(C(N)=O)ccc1NC(=O)N1CCN(c2cccs2)CC1 | -12.4
CCc1ocnc1C(=O)N1CCCC(n2nc(C)nc2C)C1 (configuration not stated) | 5.06
COc1ccc(Cn2c(C3CCNCC3)cc3cccnc32)cc1 | 3.16
CC(=O)c1cccc(OCC(=O)NS(=O)(=O)c2ccc(Br)s2)c1 | -2.56
O=C1NCC(C(=O)Nc2ccc(=O)n(Cc3ccccc3Cl)c2)N1 (configuration not stated) | -21.3
CCc1cnc(N2C[C@H]3C[C@H](C(=O)NC)[C@@H](C2)O3)nc1 | -1.27

Next:
Request: Requested field: cytotoxicity at 70.5 h. Item: Clc1snnc1CN1CCN(c2nccs2)CC1
Result: -13.7

----------
assay: Human HepG2 cell viability assay in 384 well format; format: toxicity, cell-based; parameters: dose 125 nL, time 70.5 hour; concentration not given beside the values; settings: HepG2 cells, read-out: Inhibition
Hi there, I'd appreciate the recorded cytotoxicity at 70.5 h for every entry that follows.
Answers are plain numbers, in %.

Give measured cytotoxicity at 70.5 h for every item shown.
1. COCCNS(=O)(=O)c1c(C)sc2ccccc12
2. CC1CCN(S(=O)(=O)N2CCn3cccc3C2C)CC1 (stereo unspecified)
3. CC(C)N1CCc2[nH]nc(C(=O)N3CCOCC3)c2C1
4. CCN(CC)S(=O)(=O)CC(=O)Nc1ccsc1

Result:
1: -4.03; 2: -4.61; 3: -12.9; 4: -14.5

----------
Hi there, I'd appreciate the recorded cytotoxicity at 70.5 h for every entry that follows.
assay: Human HepG2 cell viability assay in 384 well format; type: toxicity, cell-based; set-up: dose 125 nL, time 70.5 hour; concentration not given beside the values; conditions: HepG2 cells, read-out: Inhibition
Give bare numbers, in %.

CC(C)c1noc(C(C)N2CCN(Cc3ccccc3C#N)CC2)n1 (configuration not stated) | 2.84

Give measured cytotoxicity at 70.5 h for every item shown.
1. O=C(O)C(c1ccc2[nH]ccc2c1)N1CCOCC1 (configuration not stated)
2. O=C(c1ccnnc1)N1C[C@H](Oc2ccccn2)[C@H]2OCCC[C@H]21
3. Cn1nc(Cn2cccn2)c2c1CN(Cc1ccsc1)C2
4. O=C(N1CCCC1)N1C[C@@H]2CCNC[C@@H]21
5. Cc1cc(-c2cc(F)ccc2C(=O)O)nc(C2CCCCN2C(C)C)n1 (configuration not stated)
6. CCn1c(C)cc(C(=O)N2CCC(NC(=O)c3ccc(C)o3)CC2)c1C

Result:
[9.07, -8.72, -1.91, -12, -5.96, -89.5]

----------
assay: Human HepG2 cell viability assay in 384 well format; assay type: toxicity, cell-based; parameters: dose 125 nL, time 70.5 hour; concentration not given beside the values; conditions: HepG2 cells, read-out: Inhibition
Hi there, I'd appreciate the recorded cytotoxicity at 70.5 h for every entry that follows.
Give bare numbers, in %.

CN(C)C(=O)N1CCN(CCn2nc3ccccn3c2=O)CC1 | -2.81
O=C(NCc1cccc(N2CC=CC2)c1)NCC(F)(F)F | -2.26

Give measured cytotoxicity at 70.5 h for every item shown.
1. Cc1cccc(CNc2ccc(C(=O)N3CCC(CO)CC3)cc2)c1
2. COc1cccc(-c2noc(C3CCN(Cc4cn(C)nc4C)C3)n2)c1 (stereo not given)
3. CC(=O)N1CCCN(C(=O)NCCOc2ccc3c(c2)CCC3)CC1

Result:
1. -5.19
2. -5.53
3. -4.61

----------
Hi there, I'd appreciate the recorded cytotoxicity at 70.5 h for every entry that follows.
test: Human HepG2 cell viability assay in 384 well format; assay type: toxicity, cell-based; parameters: dose 125 nL, time 70.5 hour; concentration not given beside the values; details: HepG2 cells, read-out: Inhibition
Numbers only, in %.

Example compounds with recorded cytotoxicity at 70.5 h:
N#Cc1ccc(CN2CCN(C(=O)C3CCC3)[C@@H]3CS(=O)(=O)C[C@@H]32)cc1 | -6.79
CCn1cc2c(n1)C(COC)CN(Cc1ccccn1)C2 (centres undefined) | 29.7
CC(C)(C)CN1CCCC2(CCN(C(=O)c3cn[nH]c3)C2)C1 (centres undefined) | -9.2

Request: Requested field: cytotoxicity at 70.5 h. Item: O=c1ccc(-c2cccs2)nn1CN1CCCCCC1
Result: -24.8

----------
Hi there, I'd appreciate the recorded cytotoxicity at 70.5 h for every entry that follows.
assay: Human HepG2 cell viability assay in 384 well format; assay type: toxicity, cell-based; set-up: dose 125 nL, time 70.5 hour; concentration not given beside the values; conditions: HepG2 cells, read-out: Inhibition
Numbers only, in %.

Example compounds with recorded cytotoxicity at 70.5 h:
CC1(NC(=O)CC2CCc3ccccc32)CCOCC1 (stereo not drawn) | -2.46
Cc1cc(N(C)C)nc(N2CCCC2c2ccccn2)n1 (stereo not drawn) | -3.12
O=C(CN1C(=O)CCC1=O)N1CCC(CSCc2ccco2)CC1 | -4.52

Give measured cytotoxicity at 70.5 h for every item shown.
1. CN(Cc1ncc(-c2ccccc2C(=O)O)s1)c1ncccn1
2. CCS(=O)(=O)CC(=O)Nc1ccccc1N1CCc2ccccc21
3. Cc1nc(C(=O)N2CCN(S(C)(=O)=O)[C@@H]3CS(=O)(=O)C[C@@H]32)cs1
4. O=C(CC(F)(F)F)N1C[C@H]2CC[C@@H]1CN(Cc1ccccc1)C2
5. NC(=O)CSCC(=O)N1CCc2cc(Cl)cc(Cl)c2C1

Result:
31.6
-13.2
1.07
-3.61
-10.4

----------
Hi there, I'd appreciate the recorded cytotoxicity at 70.5 h for every entry that follows.
experiment: Human HepG2 cell viability assay in 384 well format; assay type: toxicity, cell-based; set-up: dose 125 nL, time 70.5 hour; concentration not given beside the values; conditions: HepG2 cells, read-out: Inhibition
Give bare numbers, in %.

Example compounds with recorded cytotoxicity at 70.5 h:
Cc1cccc(N2N=C(C(=O)NC(C)CCc3ccco3)CCC2=O)c1 (stereo not drawn) | 28.5
Cn1nc(Cn2cccn2)c2c1CN(C1CCOCC1)C2 | -0.608
CCS(=O)(=O)N1CCN(C(=O)NC(C)C)CC2(CC(=O)N(C)C2)C1 (stereo not drawn) | -7.37
O=C1N(CCCc2ccccc2)CCCC1(O)CN1CCC(CO)CC1 (stereo not drawn) | -9.35
Cc1ccc(NC(=O)N2CCN(Cc3noc(C4CC4)n3)CC2)cc1 | 27.4
COc1ccccc1CN1C[C@@H]2COC[C@]2(COc2cccnc2)C1 | -116
O=C(Cn1cc(C(=O)O)ccc1=O)Nc1ccc(Cl)cc1F | -38
CC(C)n1cnc2c1C(C(=O)NCCC#N)N(Cc1ccccc1)CC2 (stereo not drawn) | -16.7

Give measured cytotoxicity at 70.5 h for every item shown.
1. CCOCc1nc2c(c(N(C)Cc3ccsc3)n1)CCNCC2
2. COc1ccc(C[C@H]2CN(C3CCOCC3)CC[C@H]2OCC2CC2)cc1

Result:
1: -3.56; 2: 20

Give measured cytotoxicity at 70.5 h for every item shown.
1. Cc1oncc1C(=O)N1CC2CC1(C(=O)N(C)C)C2
2. O=C(NCCNc1ccc(C(F)(F)F)cn1)c1ccc(Cl)cc1F
3. Cc1ncsc1CN1C[C@@H]2COC[C@]2(C(=O)NCc2ccccn2)C1
4. CC1(C)Cc2ccccc2-c2nc(NCCO)[nH]c(=O)c21
5. Cc1cc(C2CCCN(Cc3cccnc3)C2)n[nH]1 (stereo not drawn)
6. Fc1cccc(-c2nnn3c2COC(CNCc2nccs2)C3)c1 (stereo not drawn)
7. CN(C)c1ccc(C(O)CNS(=O)(=O)C2CC2)cc1 (stereo not drawn)

Result:
[-6.15, 1.38, -9.2, -8.18, 47.5, 14.6, 10.1]

Request: Requested field: cytotoxicity at 70.5 h. Item: COCCCNc1nccc(-c2c[nH][nH]c2=O)n1
Result: 22.8
